For reference, the following IC50 results for CRBN-DDB1 (Homo sapiens, UniProt Q96SW2) were taken from various sources.

molecule	target.entity	property	observed.measurement
O=C1CCC(c2c(F)cc(N3CC(NC(=O)N[C@H]4C[C@H](c5ccccc5)C4)C3)cc2F)C(=O)N1 (stereo partly drawn)	CRBN-DDB1 (Homo sapiens, UniProt Q96SW2)	IC50	100 to 1000 nM
CN(C)c1ccc(NC(=O)NCc2ccc3c(c2)C(=O)N(C2CCC(=O)NC2=O)C3)cc1 (stereo not drawn)	CRBN-DDB1 (Homo sapiens, UniProt Q96SW2)	IC50	317 nM
COc1ccc(NC(=O)NCc2ccc3c(c2)C(=O)N(C2CCC(=O)NC2=O)C3)cc1Cl (stereo not drawn)	CRBN-DDB1 (Homo sapiens, UniProt Q96SW2)	IC50	373 nM
CC(C)(C)OC(=O)NCCCCCCCCCc1ccccc1Oc1cccc2c1C(=O)NC(=O)C2	CRBN-DDB1 (Homo sapiens, UniProt Q96SW2)	IC50	> 100000 nM
CC(=O)Nc1cccc2c1C(=O)NC(=O)C2	CRBN-DDB1 (Homo sapiens, UniProt Q96SW2)	IC50	30000 to 100000 nM
O=C1CCC(N2Cc3ccc(CNC(=O)Nc4cn[nH]c4)cc3C2=O)C(=O)N1 (stereo not drawn)	CRBN-DDB1 (Homo sapiens, UniProt Q96SW2)	IC50	661 nM
C[C@@H](NC(=O)OC1CN(c2cc(F)c(C3CCC(=O)NC3=O)c(F)c2)C1)C1CCCCC1 (stereo partly drawn)	CRBN-DDB1 (Homo sapiens, UniProt Q96SW2)	IC50	≤ 100 nM
CC1(C)CC(NC(=O)OC2CN(c3cc(F)c(C4CCC(=O)NC4=O)c(F)c3)C2)C1 (stereo not drawn)	CRBN-DDB1 (Homo sapiens, UniProt Q96SW2)	IC50	≤ 100 nM

Report IC50 for every entry below.
1. Nc1ccc2c(c1)C(=O)NC(=O)C2
2. O=C1CCC(N2Cc3ccc(CNC(=O)Nc4cc[nH]c4)cc3C2=O)C(=O)N1 (stereo not drawn)
3. O=C1CCC(c2c(F)cc(N3CC(NC(=O)Cc4cc(Cl)ccc4F)C3)cc2F)C(=O)N1 (stereo not drawn)
4. CC(C)(C)OC(=O)NCCCc1cccc(Oc2cccc3c2C(=O)NC(=O)C3)c1
5. Cc1cc2c(c(Oc3ccccc3)c1)C(=O)NC(=O)C2
6. CC(C)(C)c1ccc(NC(=O)NCc2ccc3c(c2)C(=O)N(C2CCC(=O)NC2=O)C3)cn1 (stereo not drawn)
7. COc1c(NC(=O)NCc2ccc3c(c2)C(=O)N(C2CCC(=O)NC2=O)C3)ccc(C)c1Cl (stereo not drawn)
8. O=C1CCC(c2c(F)cc(N3CC(NC(=O)NC45CC(c6ccccc6)(C4)C5)C3)cc2F)C(=O)N1 (stereo not drawn)

1: 10000 to 30000 nM; 2: 404 nM; 3: < 100 nM; 4: 30000 to 100000 nM; 5: < 10000 nM; 6: 1470 nM; 7: 203 nM; 8: 100 to 1000 nM

Report IC50 for every entry below.
1. O=C1CCC(N2Cc3ccc(CNC(=O)Nc4cccc(Cl)c4Cl)cc3C2=O)C(=O)N1 (stereo not drawn)
2. Cc1ccc(NC(=O)NCc2ccc3c(c2)C(=O)N(C2CCC(=O)NC2=O)C3)cc1OC(F)(F)F (stereo not drawn)
3. O=C1CCC(c2c(F)cc(N3CC(OC(=O)NC4CC4)C3)cc2F)C(=O)N1 (stereo not drawn)
4. O=c1[nH]c(=O)c2cc(Br)ccc2o1
5. O=C1CCC(c2c(F)cc(N3CC(OC(=O)N4CCC(F)(F)CC4)C3)cc2F)C(=O)N1 (stereo not drawn)
6. Cc1cc(C)cc(NC(=O)OC2CN(c3ccc(C4CCC(=O)NC4=O)c(Cl)c3)C2)c1 (stereo not drawn)
7. O=C1CCC(c2c(F)cc(N3CC(OC(=O)N[C@H]4C[C@H](c5ccccc5)C4)C3)cc2F)C(=O)N1 (stereo partly drawn)

479 nM
544 nM
100 to 1000 nM
> 100000 nM
100 to 1000 nM
100 to 1000 nM
100 to 1000 nM

Report IC50 for every entry below.
1. Cc1ccc(NC(=O)CC2CN(c3cc(F)c(C4CCC(=O)NC4=O)c(F)c3)C2)cc1Cl (stereo not drawn)
2. COc1ccc(Cl)cc1NC(=O)NCc1ccc2c(c1)C(=O)N(C1CCC(=O)NC1=O)C2 (stereo not drawn)
3. CC(C)(C)c1ccccc1NC(=O)NCc1ccc2c(c1)C(=O)N(C1CCC(=O)NC1=O)C2 (stereo not drawn)
4. Cc1cc(F)cc(NC(=O)OC2CN(c3cc(F)c(C4CCC(=O)NC4=O)c(F)c3)C2)c1 (stereo not drawn)
5. O=C1CCC(N2Cc3ccc(CNC(=O)NCC4CCCCC4)cc3C2=O)C(=O)N1 (stereo not drawn)

> 1000 nM
580 nM
1230 nM
100 to 1000 nM
540 nM

Report IC50 for every entry below.
1. O=C1CCC(c2c(F)cc(N3CC(OC(=O)NC45CC(C(F)F)(C4)C5)C3)cc2F)C(=O)N1 (stereo not drawn)
2. Cc1ccc(NC(=O)OC2CN(c3cc(F)c(C4CCC(=O)NC4=O)c(F)c3)C2)cc1Cl (stereo not drawn)

1. 100 to 1000 nM
2. 100 to 1000 nM

Report IC50 for every entry below.
1. O=C1Cc2cnn(Cc3ccccc3)c2C(=O)N1
2. Cc1ccccc1NC(=O)NCc1ccc2c(c1)C(=O)N(C1CCC(=O)NC1=O)C2 (stereo not drawn)
3. Nc1cccc2c1C(=O)NC(=O)C2(F)F

1. > 100000 nM
2. 672 nM
3. < 10000 nM
